system: HLA-DR7; test: ProImmune REVEAL MHC-peptide binding assay; parameters: species or system human; settings: compared to the positive control peptide, time 0
Listed here: items and their measured Relative Binding Score HLA-DR7.
Please state the value as a number alone, without comment.

Recorded Relative Binding Score HLA-DR7, per entry:
// Relative Binding Score HLA-DR7 value for TNGVIHVVDKLLYPADT (listed as Homo sapiens) [SEQ ID NO 77] : 0.47

// Relative Binding Score HLA-DR7 value for MET-005: class II peptide with known immunogenicity, IMA950 peptide (TFSYVDPVITSISPKYG) [reference compound] : 3.69

// Relative Binding Score HLA-DR7 value for INNYTPDMNREDVDYAIR (listed as Homo sapiens) [SEQ ID NO 76] : 0

More entries:
// Relative Binding Score HLA-DR7 value for BIR-002: class II peptide with known immunogenicity, IMA950 peptide (TLGEFLKLDRERAKN) [reference compound] : 0.27

###

test system: HLA-DR4; experiment: ProImmune REVEAL MHC-peptide binding assay; set-up: species or system human; conditions: compared to the positive control peptide, time 0
Listed here: items and their measured Relative Binding Score HLA-DR4.
Please state the value as a number alone, without comment.

Measured on HLA-DR4, TNGVIHVVDKLLYPADT (listed as Homo sapiens) [SEQ ID NO 77] has a documented Relative Binding Score HLA-DR4 of 0.02

Measured on HLA-DR4, BIR-002: class II peptide with known immunogenicity, IMA950 peptide (TLGEFLKLDRERAKN) [reference compound] has a documented Relative Binding Score HLA-DR4 of 6.12

Measured on HLA-DR4, MET-005: class II peptide with known immunogenicity, IMA950 peptide (TFSYVDPVITSISPKYG) [reference compound] has a documented Relative Binding Score HLA-DR4 of 5.89

Could you now look at the following substance, please?
Measured on HLA-DR4, INNYTPDMNREDVDYAIR (listed as Homo sapiens) [SEQ ID NO 76] has a documented Relative Binding Score HLA-DR4 of 0.74

###

test system: HLA-DR1; assay: ProImmune REVEAL MHC-peptide binding assay; set-up: species or system human; settings: compared to the positive control peptide, time 0
Listed here: items and their measured Relative Binding Score HLA-DR1.

Recorded Relative Binding Score HLA-DR1, per entry:
// Relative Binding Score HLA-DR1 value for TNGVIHVVDKLLYPADT (listed as Homo sapiens) [SEQ ID NO 77] : 0.24

// Relative Binding Score HLA-DR1 value for MET-005: class II peptide with known immunogenicity, IMA950 peptide (TFSYVDPVITSISPKYG) [reference compound] : 0.87

// Relative Binding Score HLA-DR1 value for BIR-002: class II peptide with known immunogenicity, IMA950 peptide (TLGEFLKLDRERAKN) [reference compound] : 40.06

Could you now look at the following substance, please?
// Relative Binding Score HLA-DR1 value for INNYTPDMNREDVDYAIR (listed as Homo sapiens) [SEQ ID NO 76] : 0.04

###

target: HLA-A*0201 (Homo sapiens, UniProt P04439, D140Y/D185E/D98H/E176V/E277Q/G131W/G231S/I119V/I121R/I166T/I218V/L300P/L318F/N151K/N90K/P208A/P217A/Q86G/Q94H/R138H/R169H/T345S); assay: UV-ligand exchange with ELISA of stabilized MHC complexes; type: binding; details: class symbol
Measured attribute: Exchange yield

Recorded Exchange yield, per entry:
// Exchange yield value for SLLESNKDLLL (listed as Homo sapiens) [SEQ ID NO 88] : +++ (50%-70%, +++)

// Exchange yield value for TLISRLPAV (listed as Homo sapiens) [SEQ ID NO 61] : ++++ (>70 = ++++)

// Exchange yield value for GLAEDIDKGEV (listed as Homo sapiens) [SEQ ID NO 57] : ++ (20%-49% = ++)

// Exchange yield value for SLAPAGVIRV (listed as Homo sapiens) [SEQ ID NO 79] : +++ (50%-70%, +++)

// Exchange yield value for TLSSIKVEV (listed as Homo sapiens) [SEQ ID NO 5] : +++ (50%-70%, +++)

More entries:
// Exchange yield value for TLWYRAPEV (listed as Homo sapiens) [SEQ ID NO 7] : ++ (20%-49% = ++)

// Exchange yield value for KIYNEFISV (listed as Homo sapiens) [SEQ ID NO 30] : ++ (20%-49% = ++)

// Exchange yield value for AMFENFVSV (listed as Homo sapiens) [SEQ ID NO 91] : +++ (50%-70%, +++)

// Exchange yield value for KIQEMQHFL (listed as Homo sapiens) [SEQ ID NO 2] : +++ (50%-70%, +++)

// Exchange yield value for HLLEDIAHV (listed as Homo sapiens) [SEQ ID NO 92] : ++ (20%-49% = ++)

// Exchange yield value for KIQEILTQV (listed as Homo sapiens) [SEQ ID NO 66] : ++ (20%-49% = ++)

// Exchange yield value for KLLEYIEEI (listed as Homo sapiens) [SEQ ID NO 71] : ++ (20%-49% = ++)

// Exchange yield value for ALYGRLEVV (listed as Homo sapiens) [SEQ ID NO 81] : ++++ (>70 = ++++)

// Exchange yield value for TLYPHTS (TLYPHTSQV; listed as Homo sapiens) [SEQ ID NO 18] : ++ (20%-49% = ++)

// Exchange yield value for ALANQKLYSV (listed as Homo sapiens) [SEQ ID NO 83] : +++ (50%-70%, +++)

// Exchange yield value for SISDVIAQV (listed as Homo sapiens) [SEQ ID NO 28] : +++ (50%-70%, +++)

###

target: HLA-A*0201 (Homo sapiens, UniProt P04439, D140Y/D185E/D98H/E176V/E277Q/G131W/G231S/I119V/I121R/I166T/I218V/L300P/L318F/N151K/N90K/P208A/P217A/Q86G/Q94H/R138H/R169H/T345S); test: UV-ligand exchange with ELISA of stabilized MHC complexes; type: binding; conditions: class symbol
Measured attribute: Exchange yield

// Exchange yield value for SLAGDVALQQL (listed as Homo sapiens) [SEQ ID NO 63] : ++++ (>70 = ++++)

// Exchange yield value for FQYDHEAFL (listed as Homo sapiens) [SEQ ID NO 14] : ++++ (>70 = ++++)

// Exchange yield value for SILTIEDGIFEV (listed as Homo sapiens) [SEQ ID NO 41] : ++ (20%-49% = ++)

// Exchange yield value for AMLAVLHTV (listed as Homo sapiens) [SEQ ID NO 64] : ++ (20%-49% = ++)

###

system: CD8+ T cells; experiment: In vitro T-cell priming assay (aAPCs loaded with peptide/MHC and anti-CD28, pMHC multimer readout); type: cell-based, human; details: in vitro immunogenicity, responding healthy donors; trifluoro-acetate salts of the peptides
Measured attribute: Donors

Recorded Donors, per entry:
// Donors value for 37 (VLAPLFVYL; listed as Homo sapiens) [compound 37] : ++++ (>70 = ++++)

// Donors value for 92 (HLLEDIAHV; listed as Homo sapiens) [compound 92] : ++ (20%-49% = ++)

// Donors value for 16 (TVIGFLLPFA; listed as Homo sapiens) [compound 16] : ++ (20%-49% = ++)

// Donors value for 71 (KLLEYIEEI; listed as Homo sapiens) [compound 71] : +++ (50%-70%, +++)

// Donors value for 66 (KIQEILTQV; listed as Homo sapiens) [compound 66] : +++ (50%-70%, +++)

// Donors value for 31 (AIDGNNHEV; listed as Homo sapiens) [compound 31] : +++ (50%-70%, +++)

More entries:
// Donors value for 15 (KLAVALLAA; listed as Homo sapiens) [compound 15] : ++ (20%-49% = ++)

// Donors value for 81 (ALYGRLEVV; listed as Homo sapiens) [compound 81] : ++ (20%-49% = ++)

// Donors value for 73 (FLLDGSANV; listed as Homo sapiens) [compound 73] : ++ (20%-49% = ++)

// Donors value for 72 (KLLTEVHAA; listed as Homo sapiens) [compound 72] : +++ (50%-70%, +++)

// Donors value for 64 (AMLAVLHTV; listed as Homo sapiens) [compound 64] : +++ (50%-70%, +++)

// Donors value for 78 (SLYDNQITTV; listed as Homo sapiens) [compound 78] : ++ (20%-49% = ++)

// Donors value for 18 (TLYPHTSQV; listed as Homo sapiens) [compound 18] : +++ (50%-70%, +++)

// Donors value for 65 (KVLEILHRV; listed as Homo sapiens) [compound 65] : +++ (50%-70%, +++)

// Donors value for 11 (VLLPVEVATHYL; listed as Homo sapiens) [compound 11] : ++++ (>70 = ++++)

// Donors value for 24 (FLVDGSWSV; listed as Homo sapiens) [compound 24] : ++ (20%-49% = ++)

// Donors value for 61 (TLISRLPAV; listed as Homo sapiens) [compound 61] : +++ (50%-70%, +++)

// Donors value for 53 (YLPHAPPFA; listed as Homo sapiens) [compound 53] : ++ (20%-49% = ++)

// Donors value for 55 (SLADFMQEV; listed as Homo sapiens) [compound 55] : ++ (20%-49% = ++)

// Donors value for 79 (SLAPAGVIRV; listed as Homo sapiens) [compound 79] : ++++ (>70 = ++++)

// Donors value for 4 (NLIEKSIYL; listed as Homo sapiens) [compound 4] : ++ (20%-49% = ++)

// Donors value for 48 (GLIEIISNA; listed as Homo sapiens) [compound 48] : + (<20% = +)

// Donors value for 45 (AIMGFIGFFV; listed as Homo sapiens) [compound 45] : + (<20% = +)

// Donors value for 1 (ILFEINPKL; listed as Homo sapiens) [compound 1] : ++ (20%-49% = ++)

// Donors value for 30 (KIYNEFISV; listed as Homo sapiens) [compound 30] : ++ (20%-49% = ++)
